System: AREc32 cells
CONDITION INFO: human
Listed molecules paired with reported Cytotoxicity ImageExpress IC10
Report as a plain number; the unit µM is understood.

Solved cases (4 shown):
State the recorded Cytotoxicity ImageExpress IC10 for this entry: Oc1c(Cl)cc(Cl)c(Cl)c1Cc1c(O)c(Cl)cc(Cl)c1Cl [Hexachlorophene] 10.7

Oc1c(Cl)c(Cl)c(Cl)c(Cl)c1Cl [Pentachlorophenol] ? 74.4

Same read-out for CC(C)Oc1cccc(NC(=O)c2ccccc2C(F)(F)F)c1 [Flutolanil] ? 138

Moving on to the next molecule: C=C(C)[C@H]1Cc2c(ccc3c2O[C@@H]2COc4cc(OC)c(OC)cc4[C@@H]2C3=O)O1 [Rotenone] 0.242

Next:
Look up Cytotoxicity ImageExpress IC10: O=[N+]([O-])c1ccc(O)c([N+](=O)[O-])c1 [2,4-Dinitrophenol] 426
